Test system: NCI-H460 lung
Assay: NCI tumour cell line growth inhibition, 48 h
Lab note: compare TGI against 5 µM. Equal or greater, write 1 (yes). Smaller, write 0 (no).

compound: CCN1CCN(c2nc(NNC(=O)Cc3ccccc3)nc(N3CCN(C(c4ccccc4)c4ccccc4)CC3)n2)CC1
systemUnderTest: NCI-H460 lung
qualitativeLabel: 0 (no)

compound: COc1ccc(C2OC(=O)c3c2ccc2ccccc32)c(C)c1 (stereo not given)
systemUnderTest: NCI-H460 lung
qualitativeLabel: 1 (yes)

compound: COc1ccc(/C(C)=C(\c2ccc(Cl)cc2)c2ccc(OCCN3CCCC3)cc2)cc1
systemUnderTest: NCI-H460 lung
qualitativeLabel: 1 (yes)

compound: O=C1C2c3[nH]c4ccccc4c3[C@@H]3CCCCCCCCCCC3C2C(=O)N1c1ccccc1 (stereo not given in full)
systemUnderTest: NCI-H460 lung
qualitativeLabel: 1 (yes)

compound: C=C(CN1CCN(c2ccccc2OC)CC1)c1ccc(C(=O)Nc2ccccc2N)cc1
systemUnderTest: NCI-H460 lung
qualitativeLabel: 1 (yes)

compound: CC(=O)Oc1ccc(OC(C)=O)c2ccccc12
systemUnderTest: NCI-H460 lung
qualitativeLabel: 1 (yes)

compound: NC(N)=N/N=C/c1c(-c2ccc([N+](=O)[O-])cc2)nc2sccn12
systemUnderTest: NCI-H460 lung
qualitativeLabel: 0 (no)

compound: Cc1ccc(C(=O)N(C(C)C)C(C)C)cc1N=NN(C)C
systemUnderTest: NCI-H460 lung
qualitativeLabel: 1 (yes)

compound: O=C(/C=C/c1ccc(-c2ccccc2[N+](=O)[O-])o1)NCc1ccc(C(=O)NCCc2ccccc2)cc1
systemUnderTest: NCI-H460 lung
qualitativeLabel: 1 (yes)

Every entry's value here was drawn from PubChem BioAssay (NCI).
